TARGET_OR_TEST_SYSTEM: Neu5Ac(a2-3)Gal(b1-3)GlcNAc(b1-2)Man(a1-3)[Neu5Ac(a2-3)Gal(b1-3)GlcNAc(b1-2)Man(a1-6)]Man(b1-4)GlcNAc(b1-4)GlcNAc
ASSAY_NOTES: glycan array binding signal (z-score within array); higher = stronger binding
STUDY_CONDITIONS: glycan notation: IUPAC condensed, linker removed
The full list was thinned out, with the strongest signals kept by preference.
Measured glycan array binding signal (z-score) values are reported for all entries that follow.
API doc: respond with a numeric literal and nothing else, no unit.

Examples from the recorded data:
>  <BINDER>
Gal 8 (Homo sapiens) (protein) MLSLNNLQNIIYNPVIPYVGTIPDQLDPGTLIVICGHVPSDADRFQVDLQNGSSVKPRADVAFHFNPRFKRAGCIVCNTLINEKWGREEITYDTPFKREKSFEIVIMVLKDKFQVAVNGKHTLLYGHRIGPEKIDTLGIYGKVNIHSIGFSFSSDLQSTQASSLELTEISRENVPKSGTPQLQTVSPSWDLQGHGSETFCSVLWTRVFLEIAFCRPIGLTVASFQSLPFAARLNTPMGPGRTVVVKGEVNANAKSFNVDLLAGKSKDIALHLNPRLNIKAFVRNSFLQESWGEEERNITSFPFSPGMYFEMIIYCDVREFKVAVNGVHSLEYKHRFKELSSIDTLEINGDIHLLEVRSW

>  <glycan array binding signal (z-score)>
-0.328

$$$$
>  <BINDER>
Erv46-EDTA (Saccharomyces cerevisiae), P39727 (protein) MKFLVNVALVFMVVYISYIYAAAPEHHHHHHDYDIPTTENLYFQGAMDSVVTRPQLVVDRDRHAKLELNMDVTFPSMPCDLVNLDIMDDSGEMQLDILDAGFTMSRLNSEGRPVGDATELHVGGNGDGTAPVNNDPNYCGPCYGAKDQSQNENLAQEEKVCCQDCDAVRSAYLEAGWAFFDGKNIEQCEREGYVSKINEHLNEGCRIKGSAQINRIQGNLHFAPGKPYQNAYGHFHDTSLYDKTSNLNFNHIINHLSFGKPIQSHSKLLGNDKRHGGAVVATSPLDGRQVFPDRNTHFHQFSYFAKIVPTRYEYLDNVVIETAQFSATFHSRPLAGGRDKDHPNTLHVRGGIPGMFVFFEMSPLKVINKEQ

>  <glycan array binding signal (z-score)>
1.06

$$$$
>  <BINDER>
HPA (Helix pomatia), Q2F1K8 (protein) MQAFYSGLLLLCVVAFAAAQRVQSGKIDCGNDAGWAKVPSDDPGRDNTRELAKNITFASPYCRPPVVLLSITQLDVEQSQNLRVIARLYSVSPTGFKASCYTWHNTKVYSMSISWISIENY

>  <glycan array binding signal (z-score)>
-0.195

$$$$

Which glycan array binding signal (z-score) is listed for SP15308B-bot-339-22-339 (Bacteroides ovatus) (protein) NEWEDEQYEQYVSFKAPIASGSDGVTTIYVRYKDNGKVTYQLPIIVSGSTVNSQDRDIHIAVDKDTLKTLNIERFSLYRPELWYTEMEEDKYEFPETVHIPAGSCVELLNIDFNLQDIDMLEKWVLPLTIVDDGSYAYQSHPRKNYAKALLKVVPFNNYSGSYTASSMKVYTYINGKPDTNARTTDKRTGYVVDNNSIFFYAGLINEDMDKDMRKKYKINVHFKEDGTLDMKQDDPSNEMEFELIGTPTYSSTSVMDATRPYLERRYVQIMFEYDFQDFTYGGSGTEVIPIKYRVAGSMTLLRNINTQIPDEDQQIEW ?
-0.211

Attribution: the supplement of paper PMC8728848
